# TARGET: GST-RIPK2 fusion protein (human RIPK2, amino acids 1-310) (Homo sapiens)
# Construct: made in house; host or cells: baculovirus infected Sf9 cells
# Sequence (O43353 1-310): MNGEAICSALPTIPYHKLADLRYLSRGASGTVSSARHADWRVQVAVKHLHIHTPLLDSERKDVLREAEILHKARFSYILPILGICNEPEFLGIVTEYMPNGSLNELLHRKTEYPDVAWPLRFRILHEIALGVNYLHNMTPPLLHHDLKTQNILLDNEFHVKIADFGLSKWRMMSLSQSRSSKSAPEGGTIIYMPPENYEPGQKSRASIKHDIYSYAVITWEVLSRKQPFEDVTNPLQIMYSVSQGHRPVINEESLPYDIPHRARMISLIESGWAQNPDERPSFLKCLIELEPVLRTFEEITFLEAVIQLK
# MEASUREMENT_PROTOCOL: RIPK2 binding competition assay (TR-FRET, Tracer 199 displacement)
# MEASUREMENT_CONDITIONS: 10 nM Tracer 199, 1 nM GST-RIPK2, read-out: RIPK2 IC50
pIC50: −log10 of the molar value.

| STRUCTURE_SMILES | TARGET | pIC50 |
| --- | --- | --- |
| COc1cc2ncc(-c3cc(F)c(OC)c(NS(=O)(=O)c4cnn(C)c4)c3)n2cc1S(=O)(=O)C(C)(C)C | GST-RIPK2 fusion protein (human RIPK2, amino acids 1-310) (Homo sapiens) | > 9.00 |
| COc1cc2ncc(-c3cc(F)c(OC)c4[nH]c(CN5CC(O)C5)nc34)n2cc1S(=O)(=O)C(C)(C)C | GST-RIPK2 fusion protein (human RIPK2, amino acids 1-310) (Homo sapiens) | 7.70 to 8.60 |
| COc1cc2ncc(-c3ccc4nc(N)n(C)c4c3)n2cc1S(=O)(=O)C(C)(C)C | GST-RIPK2 fusion protein (human RIPK2, amino acids 1-310) (Homo sapiens) | 7.70 to 8.60 |
| CCS(=O)(=O)Nc1cc(-c2cnc3cc(OCCO)c(S(=O)(=O)C(C)(C)C)cn23)cc(F)c1OC | GST-RIPK2 fusion protein (human RIPK2, amino acids 1-310) (Homo sapiens) | > 9.00 |
| CC(C)(O)COc1cc2ncc(-c3cc(F)c(N)nc3F)n2cc1S(=O)(=O)C(C)(C)C | GST-RIPK2 fusion protein (human RIPK2, amino acids 1-310) (Homo sapiens) | 8.60 to 9.00 |
| CC(C)(C)S(=O)(=O)c1cn2c(-c3ccc4[nH]ccc4c3)cnc2cc1OCCO | GST-RIPK2 fusion protein (human RIPK2, amino acids 1-310) (Homo sapiens) | 8.60 to 9.00 |
| C[C@@H](CO)COc1cc2ncc(-c3cc(Cl)c(N)nc3F)n2cc1S(=O)(=O)C(C)(C)C | GST-RIPK2 fusion protein (human RIPK2, amino acids 1-310) (Homo sapiens) | 8.60 to 9.00 |
| COc1cc2ncc(-c3cccc(NS(=O)(=O)C4CCNCC4)c3)n2cc1S(=O)(=O)C(C)(C)C | GST-RIPK2 fusion protein (human RIPK2, amino acids 1-310) (Homo sapiens) | < 7.70 |
| C[C@H](O)COc1cn2ncc(-c3cc(Cl)c(N)nc3F)c2cc1S(=O)(=O)C(C)(C)C | GST-RIPK2 fusion protein (human RIPK2, amino acids 1-310) (Homo sapiens) | 8.60 to 9.00 |
| COc1cc2ncc(-c3cc(F)c(OC)c4[nH]cnc34)n2cc1S(=O)(=O)C(C)(C)C | GST-RIPK2 fusion protein (human RIPK2, amino acids 1-310) (Homo sapiens) | 7.70 to 8.60 |
| CCS(=O)(=O)Nc1cc(-c2cnc3cc(OC[C@@H](C)O)c(S(=O)(=O)C(C)(C)C)cn23)cc(F)c1OC | GST-RIPK2 fusion protein (human RIPK2, amino acids 1-310) (Homo sapiens) | > 9.00 |
| COc1cc2ncc(-c3cc(F)c(OC)c(NC(=O)Cc4cnn(C)c4)c3)n2cc1S(=O)(=O)C(C)(C)C | GST-RIPK2 fusion protein (human RIPK2, amino acids 1-310) (Homo sapiens) | 8.60 to 9.00 |
| CC(C)(C)S(=O)(=O)c1cn2c(-c3cnc4ccnn4c3)cnc2cc1OCCO | GST-RIPK2 fusion protein (human RIPK2, amino acids 1-310) (Homo sapiens) | < 7.70 |
| COc1cc2ncc(-c3cc(F)c(N)nc3F)n2cc1S(=O)(=O)N1CCN(C)CC1 | GST-RIPK2 fusion protein (human RIPK2, amino acids 1-310) (Homo sapiens) | < 7.70 |
| COc1cc2ncc(-c3cc(N)nc(F)c3)n2cc1C(F)(F)F | GST-RIPK2 fusion protein (human RIPK2, amino acids 1-310) (Homo sapiens) | 7.70 to 8.60 |
| CC(C)(C)S(=O)(=O)c1cn2c(-c3cc(F)c(N)nc3F)cnc2cc1OCC(F)(F)CO | GST-RIPK2 fusion protein (human RIPK2, amino acids 1-310) (Homo sapiens) | 8.60 to 9.00 |
